Reference for the values: patent US20170037028A1

molecular target: GLUT1 (Homo sapiens, UniProt P11166); assay: Indirect measurement of GLUT1 activity by quantification of intracellular ATP levels (glucose induced ATP increase); type: cell-based; set-up: endogenous in cells; host or cells: DLD1 or CHO-K1; conditions: read-out: IC50 regarding glucose induced ATP increase (GLUT1 inhibition)
pIC50: −log10 of the molar value.
Measurement Type: pIC50

As a guide, the following entries are already answered.
> print(dat)
                                   compound  measurement.type  numeric.readout
1  Cc1nn(CC2CCN(S(=O)(=O)C3CCCC3)CC2)c(C)c1NC(=O)c1cc(C(N)=O)nc2ccccc12             pIC50             7.16
2  COc1ccc(CCCn2nc(C)c(NC(=O)c3cc(C(F)(F)F)nc4ccc(Br)cc34)c2C)cc1             pIC50             6.77
3  Cc1c(NC(=O)c2cc(C(N)=O)nc3cccc(F)c23)c(C(F)(F)F)nn1Cc1ccc(F)cc1C#N             pIC50             7.90
4  CCc1noc(Cn2nc(C(F)(F)F)c(NC(=O)c3cc(C(N)=O)nc4cc(F)c(Cl)cc34)c2C)n1             pIC50             7.80
5  Cc1c(NC(=O)c2cc(C(F)(F)F)nc3ccc(Br)cc23)c(C(F)(F)F)nn1Cc1ccc(S(C)(=O)=O)cc1             pIC50             7.18

(a) COc1cc(C(=O)Nc2c(C)nn(Cc3ccc(S(C)(=O)=O)cc3)c2C)c2ccccc2n1
(b) Cc1nn(Cc2ccc(F)cc2)c(C)c1NC(=O)c1cc(C2CCC2)nc2ccc(Br)cc12
Problem: Hey, which is lower on measured pIC50, a or b ? Identify your selection by its label.
Result: a
(a: 7.88, b: 8.10)

(1) Cc1c(NC(=O)c2cc(C(N)=O)nc3cccc(F)c23)c(C(F)(F)F)nn1Cc1ccc(C#N)cc1F
(2) Cc1nn(Cc2ccc(C(=O)NCCOc3ccccc3)cc2)c(C)c1NC(=O)c1cc(C(F)(F)F)nc2ccc(Br)cc12
Problem: Which numeric pIC50 is bigger, that of 1 or that of 2 ? Identify your selection by its label.
Result: 1
(1: 8.33, 2: 7.00)

(a) Cc1c(NC(=O)c2cc(C(N)=O)nc3ccccc23)c(C(F)(F)F)nn1C(C)c1ccccc1 (racemic)
(b) Cc1nn(CC(=O)Nc2cccc(C#N)c2)c(C)c1NC(=O)c1cc(C(N)=O)nc2ccccc12
Problem: Which numeric pIC50 is bigger, that of a or that of b ? Identify your selection by its label.
Result: a

----------
target: GLUT1 (Homo sapiens, UniProt P11166); test: Indirect measurement of GLUT1 activity by quantification of intracellular ATP levels (glucose induced ATP increase); type: cell-based; set-up: endogenous in cells; host or cells: DLD1 or CHO-K1; details: read-out: IC50 regarding glucose induced ATP increase (GLUT1 inhibition)
Measurement Type: IC50 (nM)

As a guide, the following entries are already answered.
> print(dat)
                                   molecule                           measured.on  numeric.readout
1  Cc1nn(Cc2ccc(F)cc2)c(C)c1NC(=O)c1cc(C2CC2)nc2ccc(C(F)(F)F)cc12  GLUT1 (Homo sapiens, UniProt P11166)              225
2  Cc1cc(Cn2nc(C(F)(F)F)c(NC(=O)c3cc(C(N)=O)nc4ccccc34)c2C)on1  GLUT1 (Homo sapiens, UniProt P11166)              112
3  Cc1nn(CC2CCNCC2)c(C)c1NC(=O)c1cc(C(N)=O)nc2ccccc12 [Example 1241]  GLUT1 (Homo sapiens, UniProt P11166)             1530
4  Cc1ccccc1Cn1nc(C(F)(F)F)c(NC(=O)c2cc(C(N)=O)nc3cc(F)ccc23)c1C  GLUT1 (Homo sapiens, UniProt P11166)              7.3
5  CNS(=O)(=O)c1cc(C(=O)Nc2c(C(F)(F)F)nn(Cc3ccc(C#N)cc3)c2C)c2ccccc2n1  GLUT1 (Homo sapiens, UniProt P11166)             49.3
6  CNC(=O)c1cc(C(=O)Nc2c(C(F)(F)F)nn(Cc3ccc(F)cc3)c2C)c2ccccc2n1  GLUT1 (Homo sapiens, UniProt P11166)             78.5

(P) COc1cc(C(=O)Nc2c(C)nn(Cc3c(C)noc3C)c2C)c2ccccc2n1
(Q) Cc1c(NC(=O)c2cc(C(N)=O)nc3ccccc23)c(C(F)(F)F)nn1Cc1cccc(C#N)c1
Problem: Which numeric IC50 is bigger, that of P or that of Q ? Identify your selection by its label.
Result: P
(P: 3370 nM, Q: 23.4 nM)

----------
molecular target: GLUT1 (Homo sapiens, UniProt P11166); test: Indirect measurement of GLUT1 activity by quantification of intracellular ATP levels (glucose induced ATP increase); format: cell-based; design: endogenous in cells; host or cells: DLD1 or CHO-K1; conditions: read-out: IC50 regarding glucose induced ATP increase (GLUT1 inhibition)
Measurement Type: IC50 (µM)

> print(dat)
                                   compound  numeric.readout
1  CCc1nc(Cn2nc(C(F)(F)F)c(NC(=O)c3cc(C(N)=O)nc4cc(F)ccc34)c2C)no1           0.0265
2  Cc1c(NC(=O)c2cc(C(F)(F)F)nc3ccc(Br)cc23)c(C(F)(F)F)nn1Cc1ccc(C#N)cc1F           0.0043
3  COc1cc(C(=O)Nc2c(C)nn(Cc3ccccc3C)c2C)c2ccccc2n1             0.05
4  Cc1nn(Cc2ccccc2C#N)c(C)c1NC(=O)c1cc(C(N)=O)nc2c(F)cc(Cl)cc12           0.0015
5  Cc1nn(Cc2cccc(OC(F)(F)F)c2)c(C)c1NC(=O)c1cc(C(F)(F)F)nc2ccc(Br)cc12            0.813
6  COc1cc(C(=O)Nc2c(C)nn(Cc3cn4ccccc4n3)c2C)c2ccccc2n1            0.228
7  Cc1c(NC(=O)c2cc(C(N)=O)nc3cccc(F)c23)c(C(F)(F)F)nn1Cc1c(F)cccc1F           0.0162
8  COC(=O)c1coc(Cn2nc(C(F)(F)F)c(NC(=O)c3cc(C(N)=O)nc4cc(F)ccc34)c2C)n1           0.0867

(1) Cc1c(NC(=O)c2cc(C(N)=O)nc3ccccc23)c(C(F)(F)F)nn1Cc1ccc(F)c(F)c1
(2) Cc1nn(C(C)c2ccccc2)c(C)c1NC(=O)c1cc(C(F)(F)F)nc2ccc(Br)cc12 (racemic)
Problem: Which numeric IC50 is bigger, that of 1 or that of 2 ? Identify your selection by its label.
Result: 2

(a) Cc1c(NC(=O)c2cc(C(N)=O)nc3cc(F)c(Cl)cc23)c(C(F)(F)F)nn1Cc1cc(C#N)no1
(b) Cc1nn(Cc2ccc(C(=O)NC[C@@H](O)CO)cc2)c(C)c1NC(=O)c1cc(C(F)(F)F)nc2ccc(Br)cc12
(c) COc1cc(C(=O)Nc2c(C)nn(Cc3cc(F)cc(F)c3)c2C)c2ccccc2n1
(d) Cc1nn(Cc2cccc(OC(F)(F)F)c2)c(C)c1NC(=O)c1cc(C(N)=O)nc2cc(F)ccc12
Problem: Ascending by IC50, please. Form field (ranking): labels in requested order.
Result: d, a, b, c

----------
Target: GLUT1 (Homo sapiens)
Sequence (P11166 1-492): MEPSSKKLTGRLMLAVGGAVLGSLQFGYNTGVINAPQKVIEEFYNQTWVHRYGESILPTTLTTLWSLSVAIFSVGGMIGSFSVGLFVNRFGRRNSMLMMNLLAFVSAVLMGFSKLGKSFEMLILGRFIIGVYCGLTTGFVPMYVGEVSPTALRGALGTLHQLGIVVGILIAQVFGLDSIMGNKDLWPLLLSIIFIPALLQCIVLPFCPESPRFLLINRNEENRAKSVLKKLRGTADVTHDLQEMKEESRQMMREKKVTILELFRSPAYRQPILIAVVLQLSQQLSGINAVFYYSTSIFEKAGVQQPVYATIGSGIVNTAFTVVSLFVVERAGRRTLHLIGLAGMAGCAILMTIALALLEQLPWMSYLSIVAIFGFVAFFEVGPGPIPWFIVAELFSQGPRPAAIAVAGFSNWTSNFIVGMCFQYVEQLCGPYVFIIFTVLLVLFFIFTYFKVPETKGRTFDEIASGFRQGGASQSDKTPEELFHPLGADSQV
Experiment: Indirect measurement of GLUT1 activity by quantification of intracellular ATP levels (glucose induced ATP increase)
Format: cell-based
Set-up: endogenous in cells; host or cells: DLD1 or CHO-K1
Settings: read-out: IC50 regarding glucose induced ATP increase (GLUT1 inhibition)
Measurement Type: IC50 (nM)

> print(dat)
                              record.smiles  measurement.type  numeric.readout
1  Cc1c(NC(=O)c2cc(C(N)=O)nc3cc(Cl)ccc23)c(C(F)(F)F)nn1Cc1ccc(C#N)cc1              IC50              2.6
2  CC(C)c1nn(Cc2ccc(C#N)cc2)c(C(F)(F)F)c1NC(=O)c1cc(C(N)=O)nc2ccccc12              IC50                1
3  Cc1cc(C(=O)Nc2c(C)nn(Cc3ccc(F)cc3)c2C)c2cccc(C)c2n1              IC50              257
4  Cc1c(NC(=O)c2cc(C(N)=O)nc3ccccc23)c(C(F)(F)F)nn1Cc1ccc(CC(F)(F)F)cc1              IC50              2.5
5  Cc1nn(Cc2ccc(C#N)cc2)c(C)c1NC(=O)c1cc(C(N)=O)nc2cc(Cl)ccc12              IC50              4.7

(P) Cc1nn(Cc2ccc(F)cc2C#N)c(C)c1NC(=O)c1cc(C(N)=O)nc2cc(F)ccc12
(Q) Cc1c(NC(=O)c2cc(C(N)=O)nc3cc(F)c(Cl)cc23)c(C(F)(F)F)nn1Cc1cccc(C(N)=O)c1
Problem: Hey, which is lower on measured IC50, P or Q ? Identify your selection by its label.
Result: P
